Record form. Attribute: self-cleavage. Fill in for each entry.
B1: Hairpin Ribozyme (parent)
chain: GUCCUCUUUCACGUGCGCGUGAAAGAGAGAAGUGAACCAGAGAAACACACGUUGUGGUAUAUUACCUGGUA

Variants of: B1
Assay: self-cleavage, relative activity (ratio to wild type); higher = more cleavage; co-transcriptional
Give bare numbers.

>>> print(df.to_string())
   variant_designation  observed_result
0             U7A A35G            0.796
1            C10G C48G           0.0825
2            A35U U67G            0.161
3            G57A A61C            0.155
4            A39U A47U            0.164
5            A30C U33C              0.1

Can you give me self-cleavage for all of these, one by one?
1. U33G C65G
2. G34C U58A
3. G13A C38G
4. U9C G51U

1: 0.122; 2: 1.27; 3: 0.0904; 4: 0.463
